- Tested on: PC-3
- PROTOCOL_SUMMARY: NCI tumour cell line growth inhibition, 48 h
Calls of active or inactive are those of the source. Rule as the data show it: active = GI50 up to about 1.1 µM and inactive = higher.
Output constraint: value belongs to true (1) for active, false (0) for inactive

Some entries whose results are on file:
compound=CSc1c(CC(=O)Nc2ccc(Cl)cc2)n(Cc2ccccc2)c2ccccc12 system_tested=PC-3 discrete_label="false (0)"
compound=O=C1c2cccc3cc4ccccc4c(c23)C(=O)N1CCCNCCNCCCN1C(=O)c2cccc3cc4ccccc4c(c23)C1=O system_tested=PC-3 discrete_label="true (1)"
compound="O=C1CC=C2C3CC4N(CCC45c4ccccc4N1C25)C/C3=C\\CO (centres undefined)" system_tested=PC-3 discrete_label="false (0)"
compound=O=c1[nH]nc(Cc2ccc([N+](=O)[O-])cc2)[nH]1 system_tested=PC-3 discrete_label="false (0)"
compound="COC(=O)c1ccc(CN2CCc3c([nH]c4ccccc34)C2CO)o1 (centres undefined)" system_tested=PC-3 discrete_label="false (0)"

// return assay outcome for COc1cc(O)c2c(c1)C(O)C(O)CC1OC1C(=O)/C=C/CC(C)OC2=O (centres undefined)
false (0)

// return assay outcome for "CCOC(=O)C(O)(C(=O)OCC)c1cc(C(C)(C)C)c(O)c(C(C)(C)C)c1"
false (0)

// return assay outcome for "C/C(=N\C1CCCCC1)c1ccccc1O"
false (0)

// return assay outcome for OCC(O)COCn1cc(Cn2ncc3c(NCc4ccccc4)ncnc32)nn1 (centres undefined)
false (0)
